# protocol: Inhibition of NF-kappaB activation in mouse RaW264.7 cells assessed as reduction in LPS-induced NO production after 24 hrs by Griess reagent based assay
# Type: cell-based
# applied-conditions: RAW264.7, 24 h
quantity: pIC50
Just the number, please; pIC50 means minus log10 of the concentration in mol/L.

>>> numeric_value("C=C1C[C@@]23CC[C@H]4[C@@](C)(CCC[C@@]4(C)C(=O)O)[C@@H]2CC[C@@H]1C3")
4.30

Consider now this further molecule.
Any idea what its pIC50 is? The molecule is C=C1C[C@@]23CC[C@H]4[C@@](C)(CC[C@@H](OC(=O)/C(C)=C\C)[C@@]4(C)C(=O)O)[C@@H]2CC[C@@H]1C3
4.69
